TESTED_SYSTEM: T1, human c-Met, membrane-bound on cells (human, UniProt P08581 25-1390)
T1 construct: whole, on cells; A431 cells carry on average 30,000 copies of c-Met per cell (Qifi); also called c-Met expressed on A431 cells; c-Met on A549 cells
T1 sequence (P08581 25-1390): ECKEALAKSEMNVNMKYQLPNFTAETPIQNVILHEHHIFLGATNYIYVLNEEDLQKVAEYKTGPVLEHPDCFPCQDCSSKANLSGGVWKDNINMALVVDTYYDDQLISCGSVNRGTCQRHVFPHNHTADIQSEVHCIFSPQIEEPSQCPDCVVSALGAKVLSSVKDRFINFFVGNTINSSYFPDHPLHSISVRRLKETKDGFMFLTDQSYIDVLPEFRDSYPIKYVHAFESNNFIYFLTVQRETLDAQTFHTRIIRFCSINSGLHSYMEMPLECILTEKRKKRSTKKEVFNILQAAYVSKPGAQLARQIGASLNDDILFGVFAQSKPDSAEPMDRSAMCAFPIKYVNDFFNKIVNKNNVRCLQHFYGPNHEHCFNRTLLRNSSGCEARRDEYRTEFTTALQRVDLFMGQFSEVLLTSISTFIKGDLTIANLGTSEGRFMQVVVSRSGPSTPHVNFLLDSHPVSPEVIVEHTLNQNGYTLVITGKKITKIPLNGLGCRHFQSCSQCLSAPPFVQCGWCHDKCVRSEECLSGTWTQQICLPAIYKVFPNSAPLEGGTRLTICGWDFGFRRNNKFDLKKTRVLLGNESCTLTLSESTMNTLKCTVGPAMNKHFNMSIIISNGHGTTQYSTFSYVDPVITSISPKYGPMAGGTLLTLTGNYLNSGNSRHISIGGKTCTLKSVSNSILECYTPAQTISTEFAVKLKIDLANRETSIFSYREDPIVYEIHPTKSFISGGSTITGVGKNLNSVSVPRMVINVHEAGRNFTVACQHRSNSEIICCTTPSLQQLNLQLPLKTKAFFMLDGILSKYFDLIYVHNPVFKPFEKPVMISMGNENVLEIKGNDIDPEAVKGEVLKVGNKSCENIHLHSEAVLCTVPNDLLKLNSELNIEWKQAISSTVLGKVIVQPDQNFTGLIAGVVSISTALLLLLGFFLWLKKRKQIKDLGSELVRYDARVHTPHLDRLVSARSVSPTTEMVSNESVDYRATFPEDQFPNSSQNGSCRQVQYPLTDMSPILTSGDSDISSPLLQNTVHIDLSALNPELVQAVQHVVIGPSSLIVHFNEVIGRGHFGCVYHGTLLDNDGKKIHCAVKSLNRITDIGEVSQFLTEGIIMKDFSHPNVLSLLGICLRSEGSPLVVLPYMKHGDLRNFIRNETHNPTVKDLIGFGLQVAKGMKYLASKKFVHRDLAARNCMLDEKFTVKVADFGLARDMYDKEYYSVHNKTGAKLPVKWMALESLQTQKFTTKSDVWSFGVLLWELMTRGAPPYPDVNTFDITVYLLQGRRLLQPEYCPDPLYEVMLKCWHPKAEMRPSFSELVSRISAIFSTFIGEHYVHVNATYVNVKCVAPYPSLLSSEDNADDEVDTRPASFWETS
PROCEDURE_TEXT: flow cytometry on A431 cells
Examples of binders with documented fold change of EC50, UniBody molecule against IgG1 of the identical clone follow.

For orientation, consider the following solved cases.
Uni-1016-006 (other, also called UniBody molecule of antibody 006) VH: QVQLVQSGAEVKKPGSSVKVSCKASGGTFSSFGIGWVRQAPGQGLEWMGRIFPILGTANYAQMFQGRVTITADKSTSTAYMELTSLRSEDTAVYYCARDVGYDSADAFDIWGQGTMVTVSS VL: DIQMTQSPSSLSASVGDRVTITCRASQGISSWLAWYQQKPEKAPKSLIYAASSLQSGVPSRFSGSGSGTDFTLTISSLQPEDFATYYCQQYNSYPPTFGQGTKVEIK :: > 2 fold
UniBody molecule of antibody 035 (other) VH: EVQLVQSGAEVKKPGESLKISCKGSGYSFTSYWIGWVRQMPGKGLEWMGIIYPGDSDTRYSPSFQGQVTISADKSISTAYLQWNSLKASDTAMYYCARQEITGEFDYWGQGTLVTVSS VL: AIQLTQSPSSLSASVGDRVTITCRASQGISSALAWYQQKPGKAPKLLIYDASSLESGVPSRFSGSGSGTDFTLTISSLQPEDFATYYCQQFNSYPMYTFGQGTKLEIK :: > 2 fold

Proceeding to the next binder to report its fold change of EC50, UniBody molecule against IgG1 of the identical clone.
Consider the binder shown here: UniBody molecule of antibody 024 (other) VH: EVQLLESGGGLVQPGGSLRLSCVASGFTFSSYAMSWVRQAPGKGLEWVSAISGSSGGSTYYVDSVKGRFTISRANSKNTLYLQMNSLRAEDTAVYYCAKDLDRGWMGYFGYWGQGTLVTVSS VL: DIQMTQSPSSVSASVGDRVTITCRASQGISSWLAWYQHKPGKAPKLLIYAASSLQSGVPSRFSGSGSGTDFTLTISSLQPEDFATYYCQQANSFPTFGQGTRLEIK What is its recorded fold change of EC50, UniBody molecule against IgG1 of the identical clone?
< 2 fold

Values from patent US20150329642A1
